The values you see were collected from patent EP4592317A1.

Molecular target: T1, Human 4-1BB extracellular domain recombinant protein (his-tag) (human, UniProt Q07011 24-186)
T1 construct: extracellular domain; also called Human4-1BB, his-tag; human 4-1BB extracellular region recombinant protein; not shown: his-tag
Test: ELISA, coated human 4-1BB-his 200 ng/well; antibody 0.041 µg/ml
I'd be grateful if you could share measured absorbance at 450 nm for these entries.
Form rule: numeric answer, no unit written next to it.

Fill in the blank: the reported absorbance at 450 nm of 137-39 VHH-hFc recombinant antibody (Fc fusion, VHH fragment inserted into vector pFclG with human IgG1 Fc tag, expressed in HEK293F; Preparation had non-specific bands, purity about 30%; not shown: human IgG1 Fc tag of the eukaryotic expression vector pFclG) QVQLVESGGGLVHVGESLTLSCVISGGSSNLYGIGWYRQAPGQERKLVAVLHNEHTTKYLDSVKGRFFVSGDNAKNTLYLHMNNVKVEDTAVYYCNSASGTLAGTGYFASVGPWGQGTLVTVSS is ____. 0.477

Look up absorbance at 450 nm: 137-18 VHH-hFc recombinant antibody (Fc fusion, VHH fragment inserted into vector pFclG with human IgG1 Fc tag, expressed in HEK293F; also called CD137-18; not shown: human IgG1 Fc tag of the eukaryotic expression vector pFclG) QVQLVESGGGLVHPGGSLRLSCAASGFIFSLYTMSWVRQAPGKGLEWVSDINSGGDSTDYADSVKGRFTISRDNAKSTLYLQMNSLKPEDTAVYYCAKDYPLGQREDYWGQGTQVTVSS 0.451
